Source: PubChem BioAssay (EPA / NIEHS)

- Read-out: TIMP1, TIMP1 (gene 7076)
- experiment: LTEA_HepaRG_TIMP1: Life Technologies and Expression Analysis (LTEA) Assay for TIMP1 using HepaRG (AID 2283534)
- condition set: mRNA level, 48 h; actives raise or lower the signal
Calls of active or inactive are those of the source. The calls were made as follows: active = hit-call score of the fitted dose curve at least 0.9, where 1 is the maximum; inactive = score below 0.9.
measured attribute: AC50

Here are 5 compounds together with their reported answers.
COc1cccc(-c2ccc(/C=C\CN3CCCCCC3)cc2Cl)c1; inactive
Clc1nc(Cl)c(Cl)c(Cl)c1Cl; inactive
CCOc1cccc(-n2cc(C(=O)N3CCN(c4cc(C(=O)O)c5ccccc5c4)CC3)nc2-c2ccc(C)cc2)c1; inactive
CCN(C(=O)c1cc(C)cc(OC[C@H](C)Nc2ccncc2)c1)C(C)C; inactive
CC(=O)OCCC(C)C; inactive

// query AC50 value for entry COC(=O)c1c(Cl)c(Cl)c(C(=O)OC)c(Cl)c1Cl inactive

// query AC50 value for entry On1ccccc1=S inactive

// query AC50 value for entry CC(C)=CCC/C(C)=C/CO inactive

// query AC50 value for entry COCCOc1cc2cc(C(=O)NC3CCN(C(C)C)CC3)n(CC(=O)Nc3ccc(Cl)cn3)c2cn1 18.2 µM (active)

// query AC50 value for entry CC(C)CCCCCCCOC(=O)CCCCC(=O)OCCCCCCCC(C)C inactive

// query AC50 value for entry CC/C(=C\C(=N/O)C(N)=O)C(C)[N+](=O)[O-] (stereo not drawn) inactive

// query AC50 value for entry C=CC(=C)CCC=C(C)C inactive

// query AC50 value for entry Nc1nc2ncc(CNc3ccc(C(=O)N[C@@H](CCC(=O)O)C(=O)O)cc3)nc2c(=O)[nH]1 inactive

// query AC50 value for entry Cc1ccc(N)cc1O inactive

// query AC50 value for entry Cc1ccc(C)c(O)c1 inactive
